Each record here notes measured half-life.
protocol.notes: in vivo
measurement.setup: rat
Description: Half life in lambda1 phase in rat
Report the figure in min without appending any unit label.

# compound, numeric.value
data = [
    ("Cc1ccccc1NC(=O)Nc1ccc(CC(=O)N2CCCC2C(=O)NCCCCC(=O)O)cc1 (configuration not stated)", 2.8),
]

Would you kindly look at the next entry?
Measured half-life of Cc1ccccc1NC(=O)Nc1ccc(CC(=O)N2CCCC2C(=O)N2CCC(CC(=O)O)CC2)cc1 (configuration not stated) : 5.8

====

Each record here notes measured half-life.
protocol.notes: in vivo
measurement.setup: rat
Description: Half life in lambda2 phase in rat
Report the figure in min without appending any unit label.

# molecule, unit.info, half-life
records = [
    ("Cc1ccccc1NC(=O)Nc1ccc(CC(=O)N2CCCC2C(=O)NCCCCC(=O)O)cc1 (configuration not stated)", "min", 9.1),
]

Would you kindly look at the next entry?
Measured half-life of Cc1ccccc1NC(=O)Nc1ccc(CC(=O)N2CCCC2C(=O)N2CCC(CC(=O)O)CC2)cc1 (configuration not stated) : 20.2
